# Measurement Notes: soluble on expression in E. coli; label from the status in PepcDB or PDB records
Parameter Measured: soluble on expression in E. coli

MKLREQINSISGFRYVIDELCIHSSVGRRCLMEQEFLTEASDIEVLLSRVEIAISYQADQRKQKGLDEIAHKLMQLRDIQGTIYSLSRHVVCTDIDFFEIKFLAILSEDIRDLIRFYQLDDLSSPLPDLSHIVSVLDPEEKKIPHFYIYDAYS	not soluble
SLCIDRQLYSAVQNSNRQKHQPLNSYVSLSDENESDHLEGSWSEDPEALIIDQESTRTLEREITKVLSPMENKVLDYYLRGYGYVKIAEIMGKTPKSIDNALQRIRGKIRNFSAPVQK	not soluble

###

# Measurement Notes: soluble on expression in E. coli; label from the status in PepcDB or PDB records
Parameter Measured: soluble on expression in E. coli

These solved cases illustrate the format of a correct answer.
MQTSAQKVIQDLTNRVQAEKEELEQLERERDLWKYNAQMNDKEALRGNERKKNIMKKGGPLCYFCNKNHVPSLCRTYPDGISRQKSLENQGKCIKCLKIGHQNGDNFCEKHHIVCRTCQQSHVKAVCPILYPKKDTPPKILRARRRSLIRAQKKKDFQEPENKHEQLTSTKAPCQENWSDF	not soluble
MGSDKIHHHHHHMTRGIYNAAMGMLVDMAKLDRIANDLANVDTAGYKQDREAFRAYLRREVFRQEPNPVESRTKKVPIGPLEYATVLDEVRTDLSQGPVEETDVPYHLAINGEGFFRIEFNGGEYYTRNGEFTVNSEGYIVTNYGGYLLDENGERVRFFDDFTVDEEGYVRDAYGNIVTRIGVYNLENPEKFGNTLFTGENPSPSENFRIMQGYVEKSNVDALKAMVDMISAMRHYELSQRAVTVNDELNGKLINSLASLK	not soluble
MLTEEKEDYLKAILTNNGDKNFVTNKILSQFLNIKPPSVSEMVGRLEKAGYVETKPYKGVRLTEDGLTHTLDIIKRHRLLELFLIEILKYNWEEVHQEAEILEHRISDLFVERLDSLLNFPETCPHGGVIPRNNEYKEKYITTILNYEPGDIVTIKRVRDKTDLLIYLSSKDISIGNEVEIVSKDEMNKVIIIKRNDNVIIVSYENAMNMFAEK	not soluble
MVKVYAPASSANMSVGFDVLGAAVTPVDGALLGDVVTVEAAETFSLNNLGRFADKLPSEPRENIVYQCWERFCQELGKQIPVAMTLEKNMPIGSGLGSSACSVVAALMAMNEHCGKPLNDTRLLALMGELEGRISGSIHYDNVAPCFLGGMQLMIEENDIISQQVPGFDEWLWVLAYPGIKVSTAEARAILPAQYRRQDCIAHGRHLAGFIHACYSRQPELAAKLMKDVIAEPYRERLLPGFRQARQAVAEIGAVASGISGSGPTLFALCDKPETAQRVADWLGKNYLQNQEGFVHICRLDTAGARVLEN	soluble
MSLDDLWQTLPDPAELVTVGDLRGMIHTHSTWSDGGASIREMAEATLTLGHEFLGTADHSRAAYYANGLTIERLREQLKEIRELQRAGLPIVAGSEVDILDDGSLDFPDDVLGELDYVVVSVHSNFTLDAARQTERLIRAVSHPLVTVLGHATGRLLLRRPGYALDLDAVLGACEANGTVVEINANAARLDLDWREALRWRERLKFAINTDAHVPGGLRDARYGVMQARKAGLTPAHVVNSLGRAEFLDFVARQRAARGAPGPADREGHHHHHH	not soluble
MSLRGLRGRSFTIGVLLIDIRNPFLPEVIAGVNEVLGPSHYQAMIGVSDARVQLETSLIESMIDYKMDGLILVAPRLPSEILATFAVQIPIVAVGYHDASATAFDTVNAE	soluble

Prompt: Which soluble on expression in E. coli is reported for this sequence? "GANDRYTETKRIVDSHCLHTICSSGRCPNMGECWGKGTATFMIGGDICTRSCKFCNTQTGRPHPLDANEPTHVAESIALMKLDHAVVTSVDRDDLPDLGAGHWAHTIREIKRLNPQTTIEVLIPDFQGRMELVDLVIEANPDIISHNMETVRRISPLVRSAANYDTSLQVIGHIARSGTKSKSGIMVGLGETPQEVETIMDDLLAVGCQILTIGQYLQPTHRHYPVAEYVTPQQFATYKTIGLEKGFSIVESAPLVRSSYHAEKHIR"
Response: not soluble

Prompt: How about "MSLRGRTSTLKVAILCFEKDRPKLEALKEILGRSYEVEFVDYSKDVWDDVLQYDCIVAYLASGIVVRGICGRLRGKWKDPAVIVLDKPLKHAVVMLGGHHGGNEVAKKLEEAGLKAVITTAMEFTEGYSVGVGFRKNATADEILEAIAMALEEVGGRMEEIRVISTVDAKRDSAIVEVANRLKRPLIFVRAEEINSMDIRETKAVKIGVKNVAEACAIYASNSGELILPKRVYGGVTVAIAWEGHHHHHH" ?
Response: soluble

Prompt: Same question, "MKLKNTLLASALLSAMAFSVNAATELTPEQAAAVKPFDRVVVTGRFNAIGEAVKAVSRRADKEGAASFYVVDTSDFGNSGNWRVVADLYKADAEKAEETSNRVINGVVELPKDQAVLIEPFDTVTVQGFYRSQPEVNDAITKAAKAKGAYSFYIVRQIDANQGGNQRITAFIYKKDAKKRIVQSPDVIPADSEAGRAALAAGGEAAKKVEIPGVATTASPSSEVGRFFETQSSKGGRYTVTLPDGTKVEELNKATAAMMVPFDSIKFSGNYGNMTEVSYQVAKRAAKKGAKYYHITRQWQERGNNLTVSADLYKLEHHHHHH" this time
Response: not soluble

Prompt: // same read-out, input: "AEVRPPFTYASLIRQAILESPEKQLTLNEIYNWFTRMFPYFRRNAATWKNAVRHNLSLHKYFVRVENVKGAVWTVDEVEFQKRRPQK"
Response: soluble

Prompt: Now try "SRRSLRAGKRRQTAGRKSKSPPKVPIVIQDDSLPAGPPPQIRILKRPTSNGVVSSPNSTSRPTLPVKSLAQREAEYAEARKRILGSASPEEEQEKPILDRPTRISQPEDSRQPNNVIRQPLGPDGSQGFKQRR" .
Response: soluble

Prompt: Another sequence to check: "MEKSKPNVVFVLGGPGSGKGTQCANIVRDFGWVHLSAGDLLRQEQQSGSKDGEMIATMIKNGEIVPSIVTVKLLKNAIDANQGKNFLVDGFPRNEENNNSWEENMKDFVDTKFVLFFDCPEEVMTQRLLKRGESSGRSDDNIESIKKRFNTFNVQTKLVIDHYNKFDKVKIIPANRDVNEVYNDVENLFKSMGF"
Response: soluble

Prompt: # repeat for "MTGQAAGPAAGPAAGQATKHAGGRRPGETRTREAILTAARVCFAERGFDATSLRRIAETAGVDQSLVHHFYGTKENLFLQALELPGKIEEAITAAAQGGLDGIGERVVRAHLSVWDDVSSRPALMTMVRSAAIHRAAAARLRETATGILARALGGVITGEDAMLRTSMVATQLVGLAMMRYVAHLEPLASADTDTVARHYGRAVQAIVTDRD"
Response: soluble
